Experiment: in vitro
Settings: human, liver microsomes
reported.metric: half-life

-- ask Record request: half-life value, item C1=C/COCc2cc(ccc2OCCN2CCCC2)Nc2nccc(n2)-c2cccc(c2)COC/1
-- reply > 1 h

###

Test: Microsomal stability in human liver microsomes assessed as intrinsic clearance
Assay type: ADME, Microsome
reported.metric: CLH (µL/min/mg)
Numbers only, in µL/min/mg.

-- ask Record request: CLH value, item COc1ccc2c(O[C@@H]3C[C@H]4C(=O)N[C@]5(C(=O)NS(=O)(=O)C6CC6)C[C@H]5/C=C\CCCCN(C)C(=O)[C@@H]4C3)cc(-c3nc(C(C)C)cs3)nc2c1C
-- reply 6

###

Assay: AUC in Wistar rat
Format: ADME
Conditions: in vivo
reported.metric: AUC (µM·h)
One number for each entry, in µM·h.

-- ask Record request: AUC value, item C[C@H]1Oc2cc(cnc2N)-c2c(nn(C)c2C#N)CN(C)C(=O)c2ccc(F)cc21 [LORLATINIB]
-- reply 3.48

###

Assay: Half life in dog
Type: ADME, Canis lupus familiaris
Conditions: in vivo
reported.metric: half-life (h)
Numbers only, in h.

-- ask Record request: half-life value, item C/C1=C/C=C/[C@H](C)[C@H](O)[C@@H](C)[C@@H](O)[C@@H](C)[C@H](OC(=O)O)[C@H](C)[C@@H](OO)/C=C/O[C@@]2(C)Oc3c(C)c(O)c4c(O)c(c(/C=N/N5CCC(N(C)C6([C@@H]7CCN(c8cc9c(C%10CC%10)cc(C(=O)O)c(=O)n9cc8F)C7)CC6)CC5)c(O)c4c3C2=O)CC1=O
-- reply 1.6

###

Assay: Half life in rat
Type: ADME
Details: in vivo
reported.metric: half-life (min)
Numbers only, in min.

-- ask Record request: half-life value, item C/C1=C/C=C/[C@H](C)[C@H](O)[C@@H](C)[C@@H](O)[C@@H](C)[C@H](OC(=O)O)[C@H](C)[C@@H](OO)/C=C/O[C@@]2(C)Oc3c(C)c(O)c4c(O)c(c(/C=N/N5CCC(N(C)C6([C@@H]7CCN(c8cc9c(C%10CC%10)cc(C(=O)O)c(=O)n9cc8F)C7)CC6)CC5)c(O)c4c3C2=O)CC1=O
-- reply 24

###

Test: AUC in Sprague-Dawley rat at 2 mg/kg, iv by LC-MS/MS analysis
Type: ADME, organism-based
Conditions: in vivo
reported.metric: AUC
The reply should read as a number followed by its unit.

-- ask Record request: AUC value, item COc1ccc2c(O[C@@H]3C[C@H]4C(=O)N[C@]5(C(=O)NS(=O)(=O)C6CC6)C[C@H]5/C=C\CCCCN(C)C(=O)[C@@H]4C3)cc(-c3nc(C(C)C)cs3)nc2c1C
-- reply 5.21 µM·h

###

Test: AUC in Sprague-Dawley rat at 10 mg/kg, po by LC-MS/MS analysis
Format: ADME, organism-based
Settings: in vivo
reported.metric: AUC (µM·h)
One number for each entry, in µM·h.

-- ask Record request: AUC value, item COc1ccc2c(O[C@@H]3C[C@H]4C(=O)N[C@]5(C(=O)NS(=O)(=O)C6CC6)C[C@H]5/C=C\CCCCN(C)C(=O)[C@@H]4C3)cc(-c3nc(C(C)C)cs3)nc2c1C
-- reply 2.79

###

Assay: Plasma clearance in Sprague-Dawley rat at 1 mg/kg, iv measured upto 24 hrs by LC-MS/MS analysis
Assay type: ADME, organism-based
reported.metric: clearance (mL/min/kg)
Give bare numbers, in mL/min/kg.

-- ask Record request: clearance value, item COc1ccc2c(O[C@@H]3C[C@H]4C(=O)N[C@]5(C(=O)NS(=O)(=O)C6CC6)C[C@H]5/C=C\CCCCN(C)C(=O)[C@@H]4C3)cc(-c3ccccc3)nc2c1
-- reply 46.5

FYI, the data here is from ChEMBL document CHEMBL6078621.
